src = patent US20230192772A1

# Tested on: Pseudomonas aeruginosa ATCC 9027
# protocolText: MIC/MBC (Example 10, MH medium)
# Format: cell-based
# assayContext: Table 5; P. aeruginosa ATCC 9027
Ends that are not written are not given here.
endpointName: MIC

Some solved entries appear below for comparison.
substance	MIC
ALWKTLLKKVGPVAGKAVLNAVTNMANQN [K12P]	12.5 µM
ALWKTLLKKVGKVAGKAVLNAVTNMANQN-NH2 [DA2Na]	1.6 µM
ALWKTLLKKVGAVAGKAVLNAVTNMANQN [K12A]	6.3 µM
ALWKTLLKKVGKVAGKAVLNAVTNAANQN [M25A]	3.1 µM
ALWKTLLKKVGKVKGKAVLNAVTNMANQN [A14K]	12.5 µM
ALWKTLLKKVGKVAGKAVLNAVTNMANQNE-OH [DA2NE]	3.1 µM

// MIC lookup, key: ALWKTLAKKVGKVAGKAVLNAVTNMANQN [L7A]
1.6 µM

// MIC lookup, key: ALWDTLLKKVGKVAGKAVLNAVTNMANQN [K4D]
25 µM

// MIC lookup, key: ALWKTLLKKVGKAAGKAVLNAVTNMANQN [V13A]
6.3 µM

// MIC lookup, key: ALWKTLLKKVGKVDGKAVLNAVTNMANQN [A14D]
50 µM
